Counter-ions that a name gives are not always drawn.
Exercise: for every item that follows, state its recorded melting point.

Looking up CC(C)(C)OC(=O)N[C@@H](CSSC[C@H](NC(=O)OC(C)(C)C)C(=O)N1CCn2nc(-c3ccccc3)cc2[C@@H]1CC1CCCCC1)C(=O)N1CCn2nc(-c3ccccc3)cc2[C@@H]1CC1CCCCC1 [Example 23] , I found its melting point recorded as 106 to 108 °C

Looking up N[C@@H](CSSC[C@H](N)C(=O)N1CCn2nc(-c3ccncc3)cc2C1CCc1ccccc1)C(=O)N1CCn2nc(-c3ccncc3)cc2C1CCc1ccccc1 (mixture of isomers) (as salt: hydrochloride) [Example 14] , I found its melting point recorded as 227 °C (dec.)

Looking up CC(C)(C)OC(=O)N[C@@H](CSSC[C@H](NC(=O)OC(C)(C)C)C(=O)N1CCn2nc(-c3ccccc3)cc2C1CCc1ccccc1)C(=O)N1CCn2nc(-c3ccccc3)cc2C1CCc1ccccc1 (mixture of isomers) [Example 2] , I found its melting point recorded as 123 to 127 °C

Looking up N[C@@H](CSSC[C@H](N)C(=O)N1CCn2nc(-c3ccc(Cl)cc3Cl)cc2C1CCc1ccccc1)C(=O)N1CCn2nc(-c3ccc(Cl)cc3Cl)cc2C1CCc1ccccc1 (mixture of isomers) (as salt: hydrochloride) [Example 22] , I found its melting point recorded as 198 to 202 °C
